- SYSTEM_NAME: EGFR (T790M) (Homo sapiens (Human), UniProt P00533, T790M)
- Sequence (P00533 25-1210 T790M): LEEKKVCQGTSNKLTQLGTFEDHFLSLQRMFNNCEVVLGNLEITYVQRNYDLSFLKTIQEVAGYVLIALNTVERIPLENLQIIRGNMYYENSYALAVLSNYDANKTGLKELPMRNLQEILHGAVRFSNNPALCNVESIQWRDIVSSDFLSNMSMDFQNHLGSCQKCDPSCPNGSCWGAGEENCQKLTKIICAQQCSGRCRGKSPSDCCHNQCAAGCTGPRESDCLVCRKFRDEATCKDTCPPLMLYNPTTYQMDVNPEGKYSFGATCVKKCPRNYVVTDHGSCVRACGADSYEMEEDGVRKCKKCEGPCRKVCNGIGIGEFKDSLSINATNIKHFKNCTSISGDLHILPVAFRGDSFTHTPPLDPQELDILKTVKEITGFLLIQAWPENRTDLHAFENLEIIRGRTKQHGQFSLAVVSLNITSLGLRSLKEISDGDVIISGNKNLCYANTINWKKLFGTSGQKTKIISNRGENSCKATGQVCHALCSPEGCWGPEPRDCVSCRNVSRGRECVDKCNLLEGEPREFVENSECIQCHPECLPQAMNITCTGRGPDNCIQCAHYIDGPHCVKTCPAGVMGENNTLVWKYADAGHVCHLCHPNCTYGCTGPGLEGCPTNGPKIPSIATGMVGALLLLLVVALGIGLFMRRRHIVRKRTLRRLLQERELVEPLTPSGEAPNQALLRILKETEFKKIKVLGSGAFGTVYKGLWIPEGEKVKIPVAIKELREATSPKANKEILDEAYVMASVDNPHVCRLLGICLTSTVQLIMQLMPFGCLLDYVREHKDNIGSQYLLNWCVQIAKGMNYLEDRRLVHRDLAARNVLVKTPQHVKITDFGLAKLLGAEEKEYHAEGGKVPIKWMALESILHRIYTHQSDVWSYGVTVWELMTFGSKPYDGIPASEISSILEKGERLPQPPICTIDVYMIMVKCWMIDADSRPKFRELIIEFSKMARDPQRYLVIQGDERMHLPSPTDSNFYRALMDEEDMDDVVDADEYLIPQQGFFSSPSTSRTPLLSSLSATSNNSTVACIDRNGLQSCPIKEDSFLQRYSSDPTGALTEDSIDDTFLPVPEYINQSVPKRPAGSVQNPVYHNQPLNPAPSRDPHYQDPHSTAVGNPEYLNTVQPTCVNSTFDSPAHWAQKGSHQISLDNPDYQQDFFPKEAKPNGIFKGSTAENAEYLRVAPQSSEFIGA
- ASSAY_SUMMARY: Kinase-Glo luminescent kinase assay, EGFR tyrosine kinase inhibitory activity (T790M)
MEASURED_METRIC: IC50

A selection of reference data follows.
> print(dat)
                                   compound                               system.name  reported.result
1  CCOc1cc2ncnc(Nc3cccc(OC)c3)c2c2c1OCCO2 [Compound I-36]  EGFR (T790M) (Homo sapiens (Human), UniProt P00533, T790M)        < 0.05 µM
2  CC(C)Oc1cc2ncnc(Nc3ccc(OCc4cccc(F)c4)c(Cl)c3)c2c2c1OCCO2 [Compound I-27]  EGFR (T790M) (Homo sapiens (Human), UniProt P00533, T790M)           < 1 µM

Give EGFR (T790M) (Homo sapiens (Human), UniProt P00533, T790M) IC50 for COc1cc2ncnc(Nc3ccc(F)c(Cl)c3)c2c2c1OCCO2 [Compound I-29]
< 1 µM

Give EGFR (T790M) (Homo sapiens (Human), UniProt P00533, T790M) IC50 for CC(C)Oc1cc2ncnc(Nc3ccc(F)c(C#N)c3)c2c2c1OCCO2 [Compound I-5]
< 1 µM

Give EGFR (T790M) (Homo sapiens (Human), UniProt P00533, T790M) IC50 for COCCOc1cc2ncnc(Nc3ccc(OC)c([N+](=O)[O-])c3)c2c2c1OCCO2 [Compound I-9]
< 1 µM

###

For reference, IC50 measured on EGFR (WT) (Homo sapiens (Human), UniProt P00533):

> print(dat)
                                   compound  reported.result
1  C#Cc1cccc(Nc2ncnc3cc(OCCOC)c4c(c23)OCCO4)c1 [Compound I-31]          < 50 nM
2  CCOc1cc2ncnc(Nc3cccc([N+](=O)[O-])c3)c2c2c1OCCO2 [Compound I-38]          < 50 nM
3  C#Cc1cccc(Nc2ncnc3cc(OC4CCOC4)c4c(c23)OCCO4)c1 (stereo not drawn) [Compound I-24]          < 50 nM
4  C#Cc1cccc(Nc2ncnc3cc(OCC4CCCO4)c4c(c23)OCCO4)c1 (stereo not drawn) [Compound I-41]          < 50 nM

Give EGFR (WT) (Homo sapiens (Human), UniProt P00533) IC50 for COCCOc1cc2ncnc(Nc3ccc(Cl)c([N+](=O)[O-])c3)c2c2c1OCCO2 [Compound I-12]
< 50 nM

Give EGFR (WT) (Homo sapiens (Human), UniProt P00533) IC50 for COCCOc1cc2ncnc(Nc3ccc(OC)c([N+](=O)[O-])c3)c2c2c1OCCO2 [Compound I-9]
< 1000 nM

Give EGFR (WT) (Homo sapiens (Human), UniProt P00533) IC50 for COCCOc1cc2ncnc(Nc3ccc(C)c([N+](=O)[O-])c3)c2c2c1OCCO2 [Compound I-11]
< 100 nM

Give EGFR (WT) (Homo sapiens (Human), UniProt P00533) IC50 for COCCOc1cc2ncnc(Nc3ccc(F)c(C#N)c3)c2c2c1OCCO2 [Compound I-13]
< 500 nM

Give EGFR (WT) (Homo sapiens (Human), UniProt P00533) IC50 for COc1ccc(Nc2ncnc3cc4c(cc23)N(CCCN2CCOCC2)C(=O)CO4)cc1OC [II-5]
< 200 nM

###

pIC50: −log10 of the molar value.
For reference, pIC50 measured on EGFR (WT) (Homo sapiens (Human), UniProt P00533):

A selection of reference data follows.
> print(dat)
                                   molecule  reported.result
1  Fc1cc(Nc2ncnc3cc(OC4CCOCC4)c4c(c23)OCCO4)ccc1Cl           > 7.00
2  CC(C)Oc1cc2ncnc(Nc3ccc(F)c(C#N)c3)c2c2c1OCCO2           > 6.52
3  CCOC(C)Oc1cc2ncnc(Nc3ccc(OC)c([N+](=O)[O-])c3)c2c2c1OCCO2 (stereo not shown)           > 6.00

I'd like to know its pIC50. The molecule in question is CCOC(C)Oc1cc2ncnc(Nc3ccc(C)c([N+](=O)[O-])c3)c2c2c1OCCO2 (stereo not shown)
> 6.52

###

In this section, each of the molecules is paired with its reported IC50.
- SYSTEM_NAME: EGFR (T790M) (Homo sapiens (Human), UniProt P00533, T790M)
- ASSAY_SUMMARY: Kinase-Glo luminescent kinase assay, EGFR tyrosine kinase inhibitory activity (T790M)
- Assay type: biochemical
- Method: Determination of the Compound Inhibitory Activity Against EGFR Kinase The inhibitory activity of compounds in formula (I) and (II) were determined using Kinase-Glo luminescent kinase assay. The receptor tyrosine kinase EGFR was tested and Gefitinib, a known EGFR inhibitor, was chosen as the positive control compound. The method is detailed below: The sample compounds were dissolved in DMSO and diluted it to 500 μM concentration with DMSO and transferred to a dose plate. […]

A selection of reference data follows.
> print(dat)
                                   molecule  reported.result
1  CCOC(C)Oc1cc2ncnc(Nc3ccc(F)c(C#N)c3)c2c2c1OCCO2 (stereo not drawn)        < 1000 nM
2  O=C1COc2cc3ncnc(Nc4ccc(F)c(Cl)c4)c3cc2N1CCCN1CCOCC1 [II-1]         < 300 nM
3  COCCOc1cc2ncnc(Nc3cccc(OC)c3)c2c2c1OCCO2        < 1000 nM
4  CCOC(C)Oc1cc2ncnc(Nc3ccc(C)c(C#N)c3)c2c2c1OCCO2 (stereo not drawn)        < 1000 nM
5  CC(C)Oc1cc2ncnc(Nc3ccc(Cl)c([N+](=O)[O-])c3)c2c2c1OCCO2        < 1000 nM

I'd like to know its IC50. The molecule in question is C#Cc1cccc(Nc2ncnc3cc(OCC)c4c(c23)OCCO4)c1
< 50 nM

I'd like to know its IC50. The molecule in question is COCCOc1cc2ncnc(Nc3ccc(C)c(C#N)c3)c2c2c1OCCO2
< 1000 nM

###

- SYSTEM_NAME: EGFR (T790M) (Homo sapiens (Human), UniProt P00533, T790M)
- ASSAY_SUMMARY: Kinase-Glo luminescent kinase assay, EGFR tyrosine kinase inhibitory activity (T790M)
MEASURED_METRIC: IC50

> print(dat)
                                   compound  reported.result
1  Fc1cc(Nc2ncnc3cc(OC4CCOCC4)c4c(c23)OCCO4)ccc1Cl [Compound I-22]           < 1 µM
2  O=C1COc2cc3ncnc(Nc4ccc(F)c(Cl)c4)c3cc2N1CCCN1CCOCC1 [II-2]           < 1 µM
3  Fc1ccc(Nc2ncnc3cc(OCC4CCCO4)c4c(c23)OCCO4)cc1Cl (centres unmarked) [Compound I-40]           < 1 µM
4  COCCOc1cc2ncnc(Nc3ccc(F)c(Cl)c3)c2c2c1OCCO2 [Compound I-30]        < 0.05 µM
5  CCOc1cc2ncnc(Nc3ccc(C)c(Cl)c3)c2c2c1OCCO2 [Compound I-37]        < 0.05 µM

Give EGFR (T790M) (Homo sapiens (Human), UniProt P00533, T790M) IC50 for CC(C)Oc1cc2ncnc(Nc3ccc(F)c([N+](=O)[O-])c3)c2c2c1OCCO2 [Compound I-2]
< 1 µM

Give EGFR (T790M) (Homo sapiens (Human), UniProt P00533, T790M) IC50 for Cc1ccc(Nc2ncnc3cc(OC(C)C)c4c(c23)OCCO4)cc1[N+](=O)[O-] [Compound I-3]
< 1 µM

Give EGFR (T790M) (Homo sapiens (Human), UniProt P00533, T790M) IC50 for COc1ccc(Nc2ncnc3cc(OC(C)C)c4c(c23)OCCO4)cc1[N+](=O)[O-] [Compound I-1]
< 1 µM

Give EGFR (T790M) (Homo sapiens (Human), UniProt P00533, T790M) IC50 for CCOc1cc2ncnc(Nc3cccc([N+](=O)[O-])c3)c2c2c1OCCO2 [Compound I-38]
< 0.05 µM

Give EGFR (T790M) (Homo sapiens (Human), UniProt P00533, T790M) IC50 for CCOC(C)Oc1cc2ncnc(Nc3ccc(OC)c([N+](=O)[O-])c3)c2c2c1OCCO2 (centres unmarked) [Compound I-15]
< 1 µM

###

For reference, IC50 measured on EGFR (WT) (Homo sapiens (Human), UniProt P00533):

> print(dat)
                                   compound  measured.metric  reported.result
1  CCOc1cc2ncnc(Nc3ccc(C)c(Cl)c3)c2c2c1OCCO2             IC50          < 50 nM
2  O=C1COc2cc3ncnc(Nc4ccc(F)c(Cl)c4)c3cc2N1CCCN1CCOCC1 [II-1]             IC50          < 50 nM
3     CCOc1cc2ncnc(Nc3ccc(C)cc3)c2c2c1OCCO2             IC50          < 50 nM
4   COCCOc1cc2ncnc(Nc3ccc(F)cc3)c2c2c1OCCO2             IC50         < 200 nM
5  Cc1ccc(Nc2ncnc3cc4c(cc23)N(CCCN2CCOCC2)C(=O)CO4)cc1Cl             IC50         < 200 nM

Give EGFR (WT) (Homo sapiens (Human), UniProt P00533) IC50 for O=C1COc2cc3ncnc(Nc4ccc(F)c(Cl)c4)c3cc2N1CCCN1CCOCC1 [II-2]
< 200 nM
